Give measured TGI for each item. Keep answers brief.
Test system: NCI-H460 lung
Experiment: NCI tumour cell line growth inhibition, 48 h
Give the quantity in µM, number only.

*Q* Would you mind telling me what TGI value was observed for `CC(C)[NH-].CC(C)[NH-].O.O.[Cl][Pt+2][Cl]` ?
*A* 62.3

*Q* State the recorded TGI for this entry: Fc1cccc(CSc2ncnc3c2ncn3C2CCCS2)c1 (stereo unspecified)
*A* 22.7

*Q* // TGI lookup, key: `O=C(O)c1ccc2c3c(ncnc13)-c1ccccc1C2=O`
*A* 6.02

*Q* Look up TGI for this compound: `CCCCOC(=O)c1ccc(NC(=O)CCl)cc1`
*A* 10.7

*Q* Which TGI is reported for this compound? `CSC1(SC)N2Cc3ccccc3N=C2C1(c1ccccc1)c1ccccc1`
*A* 64.3

*Q* Please look up its TGI: `O=C(O)c1ccc([S-])cc1.[Au+].c1ccc(CN2[CH-]N(Cc3ccccc3)C(c3ccccc3)=C2c2ccccc2)cc1`
*A* 1.28

*Q* What value of TGI has been recorded for this entry: `Nc1nc2ccc3[nH]ncc3c2c2c1CCCC2`
*A* 4.56

*Q* Look at this compound and give its reported TGI. `COc1cc2c(cc1OC)-c1ccc3cc4c(cc3c1N(CCN(C)C)C2)OCO4`
*A* 1.2

---

System: SF-268 CNS
Assay: NCI tumour cell line growth inhibition, 48 h; in the data active = GI50 below about 0.43 µM; inactive = the rest
Would you mind answering with one of these outcomes? active, inactive

*Q* Outcome logged for `C[C@]1(C(=O)O)N[C@H](C(=O)O)CS1` in this assay:
*A* inactive

*Q* Per the records of this test, what outcome belongs to `CCOc1ccc2nc(-c3cccc(OCC(=O)NC(C)C)c3)nc(Nc3ccc(-c4cn[nH]c4)cc3)c2c1` ?
*A* inactive

*Q* Give the logged outcome of this assay for the following compound: O=CC(Br)C(Br)c1ccccc1 (stereo not given)
*A* inactive

*Q* Outcome? `COc1ccc(-c2nn(-c3cccc(Cl)c3)cc2-c2c(C#N)c(=O)n3[nH]c(-c4ccc(C)cc4)nc3c2C#N)cc1`
*A* inactive

*Q* Lab log entry: O=C(Nc1ccc2[nH]c(C(=O)N3CC(CCl)c4c3cc([N+](=O)[O-])c3ccccc43)cc2c1)c1cc2ccccc2o1 (stereo not given) — outcome as called in the assay?
*A* inactive

*Q* Record lookup: outcome of this test for `CC(C)[NH-].CC(C)[NH-].O.O.[Cl][Pt+2][Cl]` ?
*A* inactive

*Q* Recorded test call requested for `CC(C)(c1ccc(Oc2ccc(C#N)c(C#N)c2)cc1)c1ccc(Oc2ccc(C#N)c(C#N)c2)cc1`
*A* inactive

*Q* // outcome(item) with item = Oc1ccc2ccccc2c1C1NN=C(c2ccccc2)S1 (stereo not given)
*A* active

*Q* Name the outcome recorded for `COc1cc2c(cc1OC)-c1ccc3cc4c(cc3c1N(CCN(C)C)C2)OCO4` in the assay.
*A* active

*Q* Recorded test outcome, item `C[n+]1c2ccccc2c(Nc2ccc(NS(=O)(=O)CCCCN=C(N)N)cc2)c2ccc(N)cc21`
*A* inactive

---

Would you kindly list TGI for each of these molecules?
Tested on: DU-145 prostate
Experiment: NCI tumour cell line growth inhibition, 48 h

*Q* I am curious: what TGI value has been reported for `Clc1cc(OCC23CC4CC(CC(C4)C2)C3)nc(OCC23CC4CC(CC(C4)C2)C3)n1` ?
*A* > 100 µM

*Q* Which TGI is reported for this molecule? `CCCCCCCCCCCCCCCCCCOc1ccc(/C=C/C2=[N+](CCCl)CCO2)cc1`
*A* > 100 µM

*Q* Reported TGI, molecule `CCn1c2ccc(C(=O)CCCN(C)C)cc2c2cc(C(=O)CCCN(C)C)ccc21` : ____
*A* 8.34 µM

*Q* Can you share its TGI? I mean this molecule: `CCOC(=O)C1=NN(c2ccc(Cl)cc2)C2=CC(C)=NN(C)C(=S)N21`
*A* > 100 µM

*Q* If you can, please state the reported TGI value of `C[n+]1c2ccccc2c(Nc2ccc(NS(=O)(=O)CCCCN=C(N)N)cc2)c2ccc(N)cc21` .
*A* 66.4 µM

*Q* Given the molecule `COc1cc([C@@H]2c3cc4c(cc3[C@@H](N=Cc3ccc(C(=O)O[C@@H](C(=O)O[C@H]5C[C@@]6(O)[C@@H](OC(=O)c7ccccc7)[C@@H]7[C@]8(OC(C)=O)CO[C@@H]8C[C@H](O)[C@@]7(C)C(=O)[C@H](OC(C)=O)C(=C5C)C6(C)C)[C@@H](NC(=O)c5ccccc5)c5ccccc5)cc3)[C@H]3COC(=O)[C@H]23)OCO4)cc(OC)c1O` , what is its reported TGI?
*A* > 42.5 µM

*Q* Entry CC1C2CC(CC2N)C1(C)C (stereo unspecified) has what TGI?
*A* > 100 µM

*Q* Which measured TGI value corresponds to `CC(C)(C)OC(=O)N1Cc2cc(O)ccc2C[C@H]1C(=O)O` ?
*A* > 100 µM

*Q* Which TGI is reported for this molecule? `CO[C@H]1C[C@H](n2cc(C)c(=O)[nH]c2=O)O[C@@H]1CO`
*A* > 100 µM

*Q* Quick one: TGI of `COc1ccc(N=N/C(=N/NC(=O)c2cc(Cl)ccc2C(=O)c2ccccc2)c2ccc(N(CCC#N)CCC#N)cc2C)cc1` ?
*A* > 100 µM

*Q* Which TGI value belongs to `CN1CCN(/C(N)=C(\C#N)C(=O)Nc2ccccc2)CC1` ?
*A* > 100 µM

*Q* Report TGI for `O=C(CCc1ccc(O)c(O)c1)NCCc1ccc(O)c(O)c1` please.
*A* > 100 µM

*Q* Suppose we examine the molecule `COc1nc2ccc(CNc3ccc(C(=O)O)cc3)cc2nc1OC` ; what TGI value has been reported?
*A* > 10 µM

*Q* Record request: TGI value, item `CCCCCC(O)(CCCCC)CCCCCCCCC1=C(O)c2ccccc2C(=O)C1=O`
*A* 25.7 µM

*Q* Fill in the blank: the reported TGI of NC(=O)CCC(NC(=O)c1cccc2c(=O)c3ccccc3[nH]c12)C(=O)O (stereo unspecified) is ____.
*A* > 100 µM

*Q* Looking for the measured TGI of CCN(CC)CCCC(C)Nc1c2ccc(Cl)cc2nc2cc(OC)c(OC)cc12 (stereo unspecified) , can you help?
*A* 11.2 µM

*Q* I have this molecule here, `C=CC[C@@H]1C=C[C@@H](C(=O)OC)n2c(=O)n(-c3ccccc3)c(=O)n21` , and I need its recorded TGI.
*A* > 100 µM

*Q* Reported TGI, molecule `CC(C)(C)c1cc(/C=C/C(=O)CC(=O)/C=C/c2cc(C(C)(C)C)c(O)c(C(C)(C)C)c2)cc(C(C)(C)C)c1O` : ____
*A* > 50 µM

*Q* Which value of TGI has been reported for `Cc1nc2c(Cl)cc(Cl)cc2c(Cl)c1CCCl` in the records?
*A* > 100 µM

*Q* Data request, read-out TGI, for `Cn1cc(-c2nc(-c3c[nH]c4ccncc34)cs2)c2cc(F)ccc21`
*A* 3.14 µM

*Q* # TGI lookup, item `COc1ccc2nc(NCN3C(=O)c4ccccc4C3=O)sc2c1`
*A* > 100 µM
